experiment: Inhibition of Salmonella enteric DXS; set-up: species or system Salmonella enterica
Outcome measure: pKi
The value called pKi is obtained by taking minus log10 of the concentration in mol/L.

Ask: Quick one: pKi for `CCCCOP(=O)(O)C(C)=O` ?
Result: 5.08

----------
experiment: Inhibition of Escherichia coli IspD
Outcome measure: IC50 (mM)
Please state the figure in mM; there is no need to write the unit.

Ask: Quick one: IC50 for `O=P(O)(O)OC[C@@H](O)[C@@H](O)CO` ?
Result: 1.36

----------
target: 1-deoxy-D-xylulose-5-phosphate synthase (Deinococcus radiodurans (strain ATCC 13939 / DSM 20539 / JCM 16871 /LMG 4051 / NBRC 15346 / NCIMB 9279 / R1 / VKM B-1422), UniProt Q9RUB5); test: Binding affinity to Deinococcus radiodurans DXS
Outcome measure: Kd (nM)
Please state the figure in nM; there is no need to write the unit.

Ask: Quick one: Kd for `Cc1ncc(C[n+]2csc(CCO[P@](=O)(O)OP(=O)(O)O)c2C)c(N)n1` ?
Result: 114

----------
assay: Inhibition of Mycobacterium tuberculosis IspF
Outcome measure: IC50 (µM)
Please state the figure in µM; there is no need to write the unit.

Ask: Quick one: IC50 for CCOC(=O)C1=C(C)N=c2s/c(=C\c3cc(Br)c(O)c(Br)c3)c(=O)n2C1C1CCCS1 (stereo unspecified) ?
Result: 6.1

----------
Target: 1-deoxy-D-xylulose-5-phosphate synthase (Deinococcus radiodurans (strain ATCC 13939 / DSM 20539 / JCM 16871 /LMG 4051 / NBRC 15346 / NCIMB 9279 / R1 / VKM B-1422), UniProt Q9RUB5)
Sequence (Q9RUB5 whole entry): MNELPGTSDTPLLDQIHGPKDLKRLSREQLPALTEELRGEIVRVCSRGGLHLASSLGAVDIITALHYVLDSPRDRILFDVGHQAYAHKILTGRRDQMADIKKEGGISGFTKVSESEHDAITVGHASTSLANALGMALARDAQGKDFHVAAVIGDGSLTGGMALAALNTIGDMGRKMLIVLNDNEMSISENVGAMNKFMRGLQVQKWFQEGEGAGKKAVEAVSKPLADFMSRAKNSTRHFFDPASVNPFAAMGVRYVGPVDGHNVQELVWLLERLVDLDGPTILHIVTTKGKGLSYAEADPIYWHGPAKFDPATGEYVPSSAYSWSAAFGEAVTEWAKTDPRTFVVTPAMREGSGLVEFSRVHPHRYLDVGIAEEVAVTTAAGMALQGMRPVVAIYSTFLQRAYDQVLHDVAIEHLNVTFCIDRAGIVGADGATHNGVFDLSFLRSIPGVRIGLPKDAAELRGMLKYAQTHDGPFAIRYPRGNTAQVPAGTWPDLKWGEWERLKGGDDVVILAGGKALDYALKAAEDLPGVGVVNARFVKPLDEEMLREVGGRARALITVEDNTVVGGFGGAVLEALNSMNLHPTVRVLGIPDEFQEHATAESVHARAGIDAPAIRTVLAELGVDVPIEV
Experiment: Inhibition of Deinococcus radiodurans DXS
Reported values of IC50 for individual entries
Please state the figure in µM; there is no need to write the unit.

FC(F)(F)Oc1cccc(Cn2cnc3ccccc32)c1    595

The record that follows has no IC50 shown yet.
Ask: Quick one: IC50 for `Cc1ncc(Cc2csc(CCO)c2C)c(N)n1` ?
Result: 430
